Parameter: IC50. Scope: all listed entries.
Test system: RS4;11 (BCL-2 dependent acute lymphoblastic leukemia cell line)
Test: RS4;11 Cell Proliferation Assay
Format: cell-based
Conditions: Homo sapiens, RS4-11, RS4;11 cells, read-out: Cellular proliferation assay (IC50, nM) RS4
Endpoint Label: IC50 (nM)

Compound | Measured
COc1ccc(CN2CCN(C3CC4(C3)CN(c3ccc(C(=O)NS(=O)(=O)c5ccc(NCC67CC8CC(C6)CC(OC)(C8)C7)c([N+](=O)[O-])c5)c(Oc5cnc6[nH]cc(F)c6c5)c3)C4)[C@H](c3ccccc3C(C)C)C2)cc1 [Example 357] | 0.19
CC(C)c1ccccc1C1CN(Cc2cccc3sccc23)CCN1C1CC2(CCN(c3ccc(C(=O)NS(=O)(=O)c4ccc(NC[C@H]5CC[C@](C)(O)CC5)c([N+](=O)[O-])c4)c(Oc4cnc5[nH]ccc5c4)c3)CC2)C1 (some centres unmarked) [Example 59] | 0.8
COCCN1CCN(C2CC3(CCN(c4ccc(C(=O)NS(=O)(=O)c5cc6c(c([N+](=O)[O-])c5)N[C@H](C[C@H]5CC[C@H](O)CC5)CO6)c(Oc5cnc6[nH]ccc6c5)c4)CC3)C2)C(c2ccccc2C(C)C)C1 (some centres unmarked) [Example 14] | 0.45
COc1ccc(CN2CCN(C3CC4(C3)CN(c3ccc(C(=O)NS(=O)(=O)c5ccc(NC[C@H]6CC[C@](C)(O)CC6)c([N+](=O)[O-])c5)c(Oc5cnc6[nH]cc(F)c6c5)c3)C4)[C@H](c3ccccc3C(C)C)C2)nc1 [Example 241] | 0.15
COc1ccc(CN2CCN(C3CC4(CCN(c5ccc(C(=O)NS(=O)(=O)c6ccc(NC[C@H]7CC[C@](C)(O)CC7)c([N+](=O)[O-])c6)c(Oc6cnc7[nH]ccc7c6)c5)CC4)C3)C(c3ccccc3C(C)C)C2)cc1C#N (some centres unmarked) [Example 132] | 0.31
CCc1ccc(CN2CCN(C3CC4(C3)CN(c3ccc(C(=O)NS(=O)(=O)c5ccc(NC[C@H]6CC[C@](C)(O)CC6)c([N+](=O)[O-])c5)c(Oc5cnc6[nH]ccc6c5)c3)C4)[C@H](c3ccccc3C(C)C)C2)cc1OC [Example 271] | 0.11
COc1cc(CN2CCN(C3CC4(CCN(c5ccc(C(=O)NS(=O)(=O)c6ccc(NC[C@H]7CC[C@](C)(O)CC7)c([N+](=O)[O-])c6)c(Oc6cnc7[nH]cc(F)c7c6)c5)CC4)C3)[C@H](c3ccccc3C(C)C)C2)cc2c1OCC2 [Example 303] | 0.3
CC(C)c1ccccc1[C@@H]1CN(Cc2ccc3c(c2)OCC3)CCN1C1CC2(C1)CN(c1ccc(C(=O)NS(=O)(=O)c3ccc(NC[C@H]4CC[C@](C)(O)CC4)c([N+](=O)[O-])c3)c(Oc3cnc4[nH]ccc4c3)c1)C2 [Example 298] | 0.24
COc1ccc(CN2CCN(C3CC4(CCN(c5ccc(C(=O)NS(=O)(=O)c6ccc(NC[C@H]7CC[C@](C)(O)CC7)c([N+](=O)[O-])c6)c(Oc6cnc7[nH]ccc7c6)c5)CC4)C3)C(c3ccccc3C3CC3)C2)cc1 (some centres unmarked) [Example 73] | 0.37
CCc1ccc(CN2CCN(C3CC4(C3)CN(c3ccc(C(=O)NS(=O)(=O)c5ccc(NC[C@H]6CC[C@](C)(O)CC6)c([N+](=O)[O-])c5)c(Oc5cnc6[nH]cc(F)c6c5)c3)C4)[C@H](c3ccccc3C(C)C)C2)cc1OC [Example 268] | 0.1
COc1ccc(CN2CCN(C3CC4(CCN(c5ccc(C(=O)NS(=O)(=O)c6ccc(NC[C@@H]7CN(C8COC8)CCO7)c([N+](=O)[O-])c6)c(Oc6cnc7[nH]ccc7c6)c5)CC4)C3)[C@@H](c3ccccc3C(C)C)C2)cc1 (single isomer, unassigned) [Example 84] | 0.206

###

Biological target: recombinant human Bcl-2-G101V protein (Homo sapiens (Human), UniProt P10415, G101V)
Assay: Bcl-2-G101V TR-FRET Assay
Format: binding
Details: Bcl-2 G101V mutant, TR-FRET; read-out: Biochemical assay (IC50, nM) Bcl-2 G101V
Returns the class for an entry based on its IC50. Class ranges: lo = under 0.5 nM, mid = from 0.5 nM up to 1 nM, hi = 1 nM and over

Compound | Classification
COc1ccc(CN2CCN(C3CC4(CCN(c5ccc(C(=O)NS(=O)(=O)c6ccc(NC[C@H]7CC[C@](C)(O)CC7)c([N+](=O)[O-])c6)c(Oc6cnc7[nH]ccc7c6)c5)CC4)C3)C(c3ccccc3C(C)C)C2)cc1C#N (some centres unmarked) [Example 132] | mid
CC(C)c1ccccc1C1CN(Cc2ccc(Cl)cc2)CCN1C1CC2(CCN(c3ccc(C(=O)NS(=O)(=O)c4ccc(NC[C@H]5CC[C@](C)(O)CC5)c([N+](=O)[O-])c4)c(Oc4cnc5[nH]ccc5c4)c3)CC2)C1 (some centres unmarked) [Example 29] | hi
COCCN1CCN(C2CC3(CCN(c4ccc(C(=O)NS(=O)(=O)c5ccc(NC[C@H]6CC[C@](C)(O)CC6)c([N+](=O)[O-])c5)c(Oc5cnc6[nH]ccc6c5)c4)CC3)C2)[C@@H](c2ccccc2C(C)C)C1 (single isomer, unassigned) [Example 13a] | hi
COc1ccc(CN2CCN(C3CC4(CCN(c5ccc(C(=O)NS(=O)(=O)c6ccc(NC[C@H]7CC[C@](C)(O)CC7)c([N+](=O)[O-])c6)c(Oc6cnc7[nH]ccc7c6)c5)CC4)C3)C(c3ccccc3C(C)C)C2)cc1C(C)=O (some centres unmarked) [Example 212] | mid
COc1cc(CN2CCN(C3CC4(C3)CN(c3ccc(C(=O)NS(=O)(=O)c5ccc(NC[C@H]6CC[C@](C)(O)CC6)c([N+](=O)[O-])c5)c(Oc5cnc6[nH]cc(F)c6c5)c3)C4)[C@H](c3ccccc3C(C)C)C2)ccc1F [Example 184] | mid
COc1ccc(CN2CCN(C3CC4(C3)CN(c3ccc(C(=O)NS(=O)(=O)c5ccc(NC[C@H]6CC[C@](C)(O)CC6)c([N+](=O)[O-])c5)c(Oc5cnc6[nH]cc(F)c6c5)c3)C4)[C@H](c3ccccc3C(C)C)C2)cc1OC [Example 141a] | lo
CC(C)c1ccccc1C1CN(Cc2ccc(N(C)C)cc2)CCN1C1CC2(CCN(c3ccc(C(=O)NS(=O)(=O)c4ccc(NC[C@H]5CC[C@](C)(O)CC5)c([N+](=O)[O-])c4)c(Oc4cnc5[nH]ccc5c4)c3)CC2)C1 (some centres unmarked) [Example 114] | mid
COc1cc(CN2CCN(C3CC4(CCN(c5ccc(C(=O)NS(=O)(=O)c6ccc(NC[C@H]7CC[C@](C)(O)CC7)c([N+](=O)[O-])c6)c(Oc6cnc7[nH]cc(F)c7c6)c5)CC4)C3)[C@H](c3ccccc3C(C)C)C2)ccc1C(F)F [Example 287] | hi
CC(C)c1ccccc1C1CN(CCc2ccccc2)CCN1C1CC2(CCN(c3ccc(C(=O)NS(=O)(=O)c4ccc(NC[C@H]5CC[C@](C)(O)CC5)c([N+](=O)[O-])c4)c(Oc4cnc5[nH]ccc5c4)c3)CC2)C1 (some centres unmarked) [Example 26] | hi
COc1cc(CN2CCN(C3CC4(C3)CN(c3ccc(C(=O)NS(=O)(=O)c5ccc(NC[C@H]6CC[C@](C)(O)CC6)c([N+](=O)[O-])c5)c(Oc5cnc6[nH]cc(F)c6c5)c3)C4)[C@H](c3ccccc3C(C)C)C2)cc2ccoc12 [Example 306] | mid
CC(C)c1ccccc1[C@@H]1CN(Cc2ccnc3c2OCC(C)(C)O3)CCN1C1CC2(C1)CN(c1ccc(C(=O)NS(=O)(=O)c3ccc(NC[C@H]4CC[C@](C)(O)CC4)c([N+](=O)[O-])c3)c(Oc3cnc4[nH]cc(F)c4c3)c1)C2 [Example 317] | lo

###

Target: recombinant human Bcl-2-G101V protein (Homo sapiens (Human), UniProt P10415, G101V)
Experiment: Bcl-2-G101V TR-FRET Assay
Type: binding
Settings: Bcl-2 G101V mutant, TR-FRET; read-out: Biochemical assay (IC50, nM) Bcl-2 G101V
Parameter: IC50. Scope: all listed entries.
Endpoint Label: IC50 (nM)

Molecule | Endpoint Label | Measured
COc1cc(CN2CCN(C3CC4(C3)CN(c3ccc(C(=O)NS(=O)(=O)c5ccc(NC[C@H]6CC[C@](C)(O)CC6)c([N+](=O)[O-])c5)c(Oc5cnc6[nH]cc(F)c6c5)c3)C4)[C@H](c3ccccc3C(C)C)C2)cc2c1OCCC2 [Example 312] | IC50 | 0.27
CC(C)c1ccccc1[C@@H]1CN(Cc2cccc3c2OCCO3)CCN1C1CC2(CCN(c3ccc(C(=O)NS(=O)(=O)c4ccc(NC[C@H]5CC[C@](C)(O)CC5)c([N+](=O)[O-])c4)c(Oc4cnc5[nH]ccc5c4)c3)CC2)C1 [Example 79b] | IC50 | 19
CC(C)c1ccccc1C1CN(Cc2cccc3c2OCCC3)CCN1C1CC2(CCN(c3ccc(C(=O)NS(=O)(=O)c4ccc(NC[C@H]5CC[C@](C)(O)CC5)c([N+](=O)[O-])c4)c(Oc4cnc5[nH]ccc5c4)c3)CC2)C1 (some centres unmarked) [Example 130] | IC50 | 1.9
COc1cc(CN2CCN(C3CC4(CCN(c5ccc(C(=O)NS(=O)(=O)c6ccc(NC[C@H]7CC[C@](C)(O)CC7)c([N+](=O)[O-])c6)c(Oc6cnc7[nH]ccc7c6)c5)CC4)C3)C(c3ccccc3C(C)C)C2)ccc1C1CC1 (some centres unmarked) [Example 156] | IC50 | 3.6
COc1cc(CN2CCN(C3CC4(C3)CN(c3ccc(C(=O)NS(=O)(=O)c5ccc(NC[C@H]6CC[C@](C)(O)CC6)c([N+](=O)[O-])c5)c(Oc5cnc6[nH]ccc6c5)c3)C4)[C@H](c3ccccc3C(C)C)C2)cc2c1OC(C)(C)C=C2 [Example 329] | IC50 | 0.47
COc1cc(CN2CCN(C3CC4(C3)CN(c3ccc(C(=O)NS(=O)(=O)c5ccc(NC[C@H]6CC[C@](C)(O)CC6)c([N+](=O)[O-])c5)c(Oc5cnc6[nH]cc(F)c6c5)c3)C4)[C@H](c3ccccc3C(C)C)C2)cc2c1OC(C)(C)C=C2 [Example 330] | IC50 | 0.62
[2H]C([2H])([2H])Oc1ccc(CN2CCN(C3CC4(C3)CN(c3ccc(C(=O)NS(=O)(=O)c5ccc(NC[C@H]6CC[C@](C)(O)CC6)c([N+](=O)[O-])c5)c(Oc5cnc6[nH]cc(F)c6c5)c3)C4)[C@H](c3ccccc3C(C)C)C2)cc1 [Example 218] | IC50 | 0.25
CC(C)c1ccccc1C1CN(Cc2cccc3c2OCO3)CCN1C1CC2(CCN(c3ccc(C(=O)NS(=O)(=O)c4ccc(NC[C@H]5CC[C@](C)(O)CC5)c([N+](=O)[O-])c4)c(Oc4cnc5[nH]ccc5c4)c3)CC2)C1 (some centres unmarked) [Example 115] | IC50 | 0.37

Where do the numbers come from? From patent US20240376097A1.
